Biological target: human PD-1 expressed on cells (human, UniProt Q15116 25-288)
Sequence (Q15116 25-288): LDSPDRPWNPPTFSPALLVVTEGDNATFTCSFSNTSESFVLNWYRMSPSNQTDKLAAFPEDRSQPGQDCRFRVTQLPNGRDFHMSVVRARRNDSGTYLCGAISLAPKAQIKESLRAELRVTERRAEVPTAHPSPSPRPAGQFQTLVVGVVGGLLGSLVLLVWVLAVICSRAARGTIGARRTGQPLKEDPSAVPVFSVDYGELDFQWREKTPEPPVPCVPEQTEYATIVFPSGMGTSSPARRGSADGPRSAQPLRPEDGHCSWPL
Test: cell-based or functional assay
Measured IL-2 release in HuT78/PD-1, EC50 of individual entries
// units = µg/mL; emit number, no label

{"columns": ["binder", "valueType", "resultNumber"],
 "data": [
  ["hu326-1 (antibody, IgG2, V domains shown, not shown: a dimerising Fc or GST, domain: Ig kappa C-region; Initial humanized version, IgG2 / kappa) VH: QVQLVQSGSELKKPGASVKVSCKASGYTFTNYGMNWVRQAPGQGLEWMGWINNNNGEPTYAQGFRGRFVFSLDTSASTAYLQISSLKTEDTAVYFCARDVMDYWGQGTTVTVSS VL: DIVLTQSPASLAVSPGQRATITCRASESVDNYGYSFMHWYQQKPGQPPKLLIYRASNLESGVPARFSGSGSRTDFTLTINPVEANDTANYYCQQSKEYPTFGGGTKVEIKR", "IL-2 release in HuT78/PD-1, EC50", 0.213]
]}

Query: Would you kindly share the measured IL-2 release in HuT78/PD-1, EC50 for ch326 (antibody, human IgG2, V domains shown, not shown: a dimerising Fc or GST, domain: Ig kappa C-region; Murine VH and Vκ of mu326 on human IgG2 / kappa) VH: QIQLVQSGPELKKPGETVKISCKASGYTFTNYGMNWVKQAPGKGLKWMGWINNNNGEPTYAEEFKGRFAFSLETSASTAYLQINNLKNEDTATYFCARDVMDYWGQGTSVTVSS VL: DIVLTQSPASLAVSLGQRATISCRASESVDNYGYSFMHWYQQKPGQPPQLLIYRASNLESGIPARFSGSGSRTGFTLTINPVEADDVATYYCQQSKEYPTFGGGTKLEVKR ?
Reply: 0.135

Query: Item under review: hu326-2 F95Y (antibody, V domains shown, mAb; constant regions not restated (hu326-1 is IgG2 / kappa); Forward mutation to human) VH: QVQLVQSGSELKKPGASVKVSCKASGYTFTNYGMNWVRQAPGQGLEWMGWINNNNGEPTYAQGFRGRFVFSLDTSASTAYLQISSLKTEDTAVYYCARDVMDYWGQGTTVTVSS VL: DIVLTQSPASLAVSPGQRATITCRASESVDNYGYSFMHWYQQKPGQPPKLLIYRASNLESGVPARFSGSGSRTDFTLTINPVEANDTANYYCQQSKEYPTFGGGTKVEIK . Reported IL-2 release in HuT78/PD-1, EC50?
Reply: 0.135
